- Assay info: p53 small molecule agonists, cell-based qHTS assay: qHTS cell viability counter screen (AID 1963581); also: nearly all actives have a fitted effect of over 45% in size
- Condition parameters: p53RE-bla HCT-116 viability, ATP luminescence, 16 h; series mostly up to 66 µM
Results filed as inconclusive are left out. Activity calls are given as the source filed them. Calls follow the shape of the full dose curve.
Observation type: activity change, negative = cytotoxicity

Known results for molecules:
Clc1cc(Cl)nc(Cl)n1    inactive
CC1(N)CCC(C(C)(C)N)CC1 (stereo unspecified)    inactive
CN(C)CCN(Cc1ccsc1)c1ccccn1    inactive
CCCCCCC1CCCC(=O)O1 (stereo unspecified)    inactive
CC(=O)[C@H]1CC[C@H]2[C@@H]3C[C@H](C)C4=CC(=O)CC[C@]4(C)[C@H]3[C@@H](O)C[C@]12C    inactive

Turning now to a further molecule:
Exam item: Indicate the recorded activity change, negative = cytotoxicity value for this molecule: CCCN1C[C@H](CSC)C[C@@H]2c3cccc4[nH]cc(c34)C[C@H]21
Marked response: inactive
